B1: ETS1 (parent)
chain: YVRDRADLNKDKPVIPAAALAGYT

variants of: B1; experiment: protein stability index of a GFP-peptide fusion (GPS, HEK-293T) (PSI 1-6); higher = more stable; conditions: c terminus: a fixed tail appended;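 also: lentivirally expressed fusions sorted by FACS into six bins by GFP to DsRed ratio, PSI derived from sequencing read proportions per bin multiplied by bin number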
// FALSE strictly below 2 in protein stability index; TRUE otherwise

Here's what some known entries look like.
INSERT INTO results (variant_descriptor, qualitative_label) VALUES
  ('D4Y', 'TRUE'),
  ('P16N', 'TRUE'),
  ('Y23M', 'FALSE'),
  ('A18S', 'TRUE'),
  ('A18Q', 'TRUE'),
  ('P13N', 'TRUE'),
  ('A19D', 'TRUE'),
  ('A18I', 'TRUE'),
  ('N9Q', 'FALSE'),
  ('K12H', 'TRUE');

Hi team, for "R3E" , is the recorded protein stability index at or above 2?
TRUE

Hi team, for "N9R" , is the recorded protein stability index at or above 2?
TRUE

Textbook exercise: given the entry "R3V" , state whether its protein stability index is greater than or equal to 2.
FALSE

Test whether the variant "A19I" records protein stability index of 2 or higher.
TRUE

Is it the case that "P16K" has protein stability index reaching or exceeding 2?
TRUE

Record "D7C" ; criterion: protein stability index no lower than 2. Met?
TRUE

Could you please find out whether "N9D" has protein stability index that meets 2 or exceeds it?
FALSE

Reported protein stability index at or above 2? "A21S"
TRUE

Hi team, for "A19H" , is the recorded protein stability index at or above 2?
FALSE

Does the reported protein stability index for "D11K" fall at or above the 2 mark?
FALSE

Given the entry "P16H" , answer whether its protein stability index meets or surpasses 2.
TRUE

Please check the record "P16G" and state if its protein stability index is at or above 2.
FALSE

Check this variant for protein stability index at or above 2: "L20C"
TRUE

Hi, just wondering whether "A18D" shows protein stability index of 2 or higher.
TRUE

Reported protein stability index reaches at least 2 for "L20H" ?
FALSE

Can "K10R" be said to have protein stability index at or above 2?
TRUE

Could you verify whether the entry "V14G" shows protein stability index of no less than 2?
TRUE

Please tell me: is the variant "P13A" at or over 2 in terms of protein stability index?
FALSE

Check if protein stability index >= 2 (inclusive). Item: "P13R"
TRUE

Determine whether measured protein stability index meets or exceeds 2 for "I15R"
FALSE

Is reported protein stability index greater than or equal to 2 here: "K10S"
FALSE

Check the entry "D4P" : does protein stability index equal or exceed 2?
TRUE

Tell me whether protein stability index is at least 2 here: "A21P"
FALSE
